Test: NCI Yeast Anticancer Drug Screen. Data for the sgs1 mgt1 strain (AID 161)
Settings: S. cerevisiae sgs1 mgt1 strain, at 50.0 µM (retest, dose inferred, filed as 5.0)
Compounds without any hit were thinned out: in the full panel of roughly 79,000, 15% have a hit. Activity calls are given as the source filed them. Rule as the data show it: active = growth inhibition above about 70%; inactive = the rest.
Classes used: active, inactive

compound=CCCOC(=O)CCCC(=O)N(CC)CC class_name=inactive
compound=Cc1c[n+](CC(=O)c2ccc(I)cc2)c(C)s1 class_name=inactive
compound=Cc1ccc(C)c(S(=O)(=O)Nc2c([N+](=O)[O-])cc([N+](=O)[O-])c3ccccc23)c1 class_name=inactive
compound=FC(F)(F)c1nc(Cl)nc2nc[nH]c12 class_name=inactive
compound="CC(=O)c1c2c(cc3c1CC1(C3)Cc3cc4c(c(C(=O)O)c3C1)CCCC4)CCCC2 (stereo unspecified) (tested in a mixture with another compound)" class_name=active
compound=Cc1cc(O)c(/C=N/C(=S)Nc2ccc(S(N)(=O)=O)cc2)c(=O)o1 class_name=inactive
compound="O=C(c1ccccc1)C(Br)CCCC(Br)C(=O)c1ccccc1 (stereo unspecified)" class_name=active
compound=O=C1C(CCl)=CS(=O)(=O)c2ccccc21 class_name=active
compound=CC(C)NCC=C=Nc1ccccc1 class_name=inactive
compound=Fc1ccc(NC(=S)SCc2ccc(Cl)c(Cl)c2)c(F)c1 class_name=active
compound="OC(Cc1cccnc1)(c1ccccc1)c1ccc(Cl)cc1 (stereo unspecified)" class_name=active

---

Test: NCI Yeast Anticancer Drug Screen. Data for the bub3 strain (AID 167)
Conditions: S. cerevisiae bub3 mutant strain, at 50.0 µM (retest, dose inferred, filed as 5.0)
The panel holds about 79,000 compounds, 15% with a hit somewhere; the sample as a whole holds those more often. Calls of active or inactive are those of the source. No stated cut-off is given here; in the data, active means growth inhibition above about 70%; inactive means the rest.
Classes used: true = active, false = inactive

compound="CC(C)(CCCCC(C)(C)NCC1COc2ccccc2O1)NCC1COc2ccccc2O1 (centres undefined)" class_name=true
compound=CCN(CC)c1ccc(N=C2C=C(C(=O)Nc3cccc(Cl)c3)C(=O)c3ccccc32)c(C)c1 class_name=false
compound="O=NN(CCCl)C(=O)NCCSSCCNC(=O)N(CCCl)N=O (tested in a mixture with another compound)" class_name=false
compound=Nc1ccc(-c2cccc(-c3ccccc3)c2)cc1 class_name=true
compound=CCN(CC)CCCC(=O)Nc1cc(OC)cc2cccnc12 class_name=false
compound=CCCCCCCCCCCCCCCC(=O)N1CCOCC1 class_name=true
compound=O=Cc1c(Cn2ccnc2)c2cc([N+](=O)[O-])ccc2n1Cc1ccccc1 class_name=false
compound="CC(N1CCOCC1)C(O)(c1ccccc1)c1ccccn1 (centres undefined)" class_name=false
compound=OC1(c2ccccc2)c2ccccc2Sc2ccccc21 class_name=true
compound="Cc1ccccc1C(=O)C(C)c1ccccc1 (centres undefined)" class_name=false
compound="O=C(c1ccccc1)C(Br)CCCC(Br)C(=O)c1ccccc1 (centres undefined)" class_name=true
compound=Cc1cccc(Cl)c1NC(=O)/C=C/c1ccccc1 class_name=false
compound=C=CCc1cc(C(=O)OCC)cc(OC)c1O class_name=true
compound="CC1CN(CCCN2c3ccccc3Sc3ccc(Cl)cc32)C(C)(C)C1 (centres undefined)" class_name=true
compound=CNc1ccc(N=O)cc1 class_name=true
compound=Cc1cc2c(c(C(N)=O)c1C)-c1cccc(F)c1C2=O class_name=false
compound="C=CCOC(=O)CC(O)C(=O)OCC=C (centres undefined)" class_name=false
compound="CC1CCC(C)(C)c2cc([N+](=O)[O-])cc([N+](=O)[O-])c21 (centres undefined)" class_name=true
compound=Cc1ccc(O)c(C(c2cc(C)ccc2O)c2cc([N+](=O)[O-])ccc2O)c1 class_name=true
compound=CCOC(=O)Nc1cc2c(cn1)[nH]c1ccccc12 class_name=false
compound=O=C(CBr)c1cc(-c2ccc(Cl)cc2)nc2ccccc12 class_name=true
compound=Brc1ccc2[nH]c3ccccc3c2c1 class_name=false
compound=CCOC(=O)[C@@H](F)[C@H](Br)C(=O)OCC class_name=true
compound="NC1=NC(c2ccccc2)CC(c2cc(Cl)cc(Br)c2O)=N1 (centres undefined)" class_name=false
